- protocol-description: Racemic modafinil:malonic acid co-crystal pharmacokinetic study in dogs (vs micronized pure modafinil)
- Assay type: in vivo
- cond: dog, in vivo
- Procedure: As a reference, micronized modafinil with a median particle size of about 2 micrometers was also administered in the study.
property-name: half-life (h)
Could you give me the number in h? Just the number is fine.

I am curious: what half-life value has been reported for NC(=O)C[S+]([O-])C(c1ccccc1)c1ccccc1 (racemic) [Racemic Modafinil] ? 2.1

###

- protocol-description: Dog pharmacokinetic study of a single intravenous dose of R-(−)-modafinil vs racemic modafinil
- Assay type: in vivo
- cond: dog, plasma; dogs, 5 mg/kg IV; Mean
property-name: Cmax (ng/mL)
Could you give me the number in ng/mL? Just the number is fine.

compound="NC(=O)C[S@@+]([O-])C(c1ccccc1)c1ccccc1 [R-(−)-modafinil]" value=7810

Then there is this compound:
I am curious: what Cmax value has been reported for NC(=O)C[S+]([O-])C(c1ccccc1)c1ccccc1 (racemic) [Racemic Modafinil] ? 8680
